Molecular target: T1, PCSK9 protein inserted with biotin receiving peptide BP15 and His-tag: PCSK9-BP15-His6 (human, UniProt Q8NBP7 153-692; A8T644 31-152, biotin on the BP15 biotin receiving peptide (labeled during the expression))
T1 construct: also called WT PCSK9; PCSK9 WT
Assay: ELISA, biotin PCSK9 on streptavidin plate
readout-kind: EC50 (ng/mL)
Enter your answer as a number in ng/mL; do not include the unit.

binder="h011-3191 (antibody, V domains shown) VH: QVQLVQSGAEVKKPGASVKVSCKASGYTFTGYTIHWVRQAPGQGLEWMGYIVPSSTYTKFNQKFKDRVTMTRDTSISTAYMELSRLRSDDTAVYYCARERIYSNYWFFDVWGQGTTVTVSS VL: DIVMTQSPSSLSASVGDRVTITCKASQNVYTAVAWYQQKPGKSPKLLIYSASNRYTGVPSRFSGSGSGTDFTLTISSLQPEDFATYFCQQYSSYPYTFGGGTKVEIK" recorded_value=6.31

Form: binder = h011-3193 (antibody, V domains shown) VH: QVQLVQSGAEVKKPGASVKVSCKASGYTFTGYTIHWVRQAPGQGLEWMGYINPSSTYTKFNQKFKDRVTMTRDTSISTAYMELSRLRSDDTAVYYCARERIYSNYWFFDVWGQGTTVTVSS VL: DIVMTQSPSSLSASVGDRVTITCKASQNVYTAVDWYQQKPGKSPKLLIYSASNRYTGVPSRFSGSGSGTDFTLTISSLQPEDFATYFCQQYSSYPYTFGGGTKVEIK ; EC50 = 4.7

Form: binder = h011-3065 (antibody, V domains shown) VH: QVQLVQSGAEVKKPGASVKVSCKASGYTFTGYDIHWVRQAPGQGLEWMGYINPSSTYTKFNQKFKDRVTMTRDTSISTAYMELSRLRSDDTAVYYCARERIYSNYWFFDVWGQGTTVTVSS VL: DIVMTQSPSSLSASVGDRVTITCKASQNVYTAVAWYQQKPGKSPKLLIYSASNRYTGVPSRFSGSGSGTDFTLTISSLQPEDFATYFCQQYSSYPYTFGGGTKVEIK ; EC50 = 5.39
